Reference list of normalized growth values.
# assayProtocol: chemical genetic growth profiling, strain panel (AID 1159580)
# experimentalSetup: S. cerevisiae deletion strains, growth OD, locus YNL183C, strain NPR1, hits give low values
About 2,000 (36%) of roughly 5,500 compounds were called active. Not shown: some 18% with an inconclusive outcome. This is one part of the list.
Format: numeric value only, no unit, no commentary.

For orientation, consider the following solved cases.
molecule	recordedMeasurement
O=C1CN2Cc3c(ccc(Cl)c3Cl)N=C2N1	0.941
Cc1nc(-c2ccc(C(F)(F)F)cn2)[nH]c(=O)c1Cl	0.696
O=C1CC[C@]23C=CC(=O)NCCCCNCCCNC(=O)/C=C/c4ccc(c2c4)O[C@@H]3C1	0.99

QUERY: Would you mind telling me what normalized growth value was observed for Cn1c(=O)c2[nH]c(C3CCCC3)nc2n(C)c1=O ?
RESULT: 0.942

QUERY: Here is the next molecule: NS(=O)(=O)c1cc2c(cc1C(F)(F)F)NCNS2(=O)=O
RESULT: 0.96

QUERY: Here is the next molecule: CN(C)C(=O)Oc1cc(OC(=O)N(C)C)cc(C(O)CNC(C)(C)C)c1 (centres undefined)
RESULT: 0.934

###

Reference list of normalized growth values.
# assayProtocol: chemical genetic growth profiling, strain panel (AID 1159580)
# experimentalSetup: S. cerevisiae deletion strains, growth OD, locus YAL021C, strain ccr4, hits give low values
Out of some 5,500 compounds screened, about 2,000 (36%) were called active. About 18% were inconclusive and are not listed. This is one part of the list.
Format: numeric value only, no unit, no commentary.

For orientation, consider the following solved cases.
compound	normalized growth
CC1(C)O[C@@H]2CC3C4C[C@H](F)C5=CC(=O)C=CC5(C)C4C(O)CC3(C)[C@]2(C(=O)CO)O1 (some centres undefined)	1
COc1cccc2c1cc([N+](=O)[O-])c1c(C(=O)O)cc3c(c12)OCO3	1.01
O=c1c(-c2cc(O)c(O)c(O)c2)coc2cc(O)c(O)c(O)c12	0.719
NC(=O)CC[C@@H](N)C(=O)O	1.02
COc1cc2cc[n+]3cc4c(OC)c(OC)ccc4cc3c2cc1OC	0.99

QUERY: Would you mind telling me what normalized growth value was observed for CN(C)CCC=C1c2ccccc2C=Cc2ccccc21 ?
RESULT: 0.893

QUERY: Here is the next compound: CCC(CCC(C)[C@H]1CCC2C3CC=C4C[C@@H](O)CC[C@]4(C)C3CC[C@@]21C)C(C)C (some centres undefined)
RESULT: 1.01

###

Reference list of normalized growth values.
# assayProtocol: chemical genetic growth profiling, strain panel (AID 1159580)
# experimentalSetup: S. cerevisiae deletion strains, growth OD, locus YBR171W, strain sec66, hits give low values
Out of some 5,500 compounds screened, about 2,000 (36%) were called active. Roughly 18% stayed inconclusive and do not appear here. The other results are listed elsewhere or left out.
Format: numeric value only, no unit, no commentary.

For orientation, consider the following solved cases.
compound	normalized growth
COc1ccc(-c2cc(=O)c3cc(OC)ccc3o2)cc1	0.95
Cc1cc2cc3c(C)cc(=O)oc3c(C)c2o1	0.959

QUERY: Would you mind telling me what normalized growth value was observed for CC1=CCc2c(cc3oc(C)cc(=O)c3c2O)OC1 ?
RESULT: 0.94

QUERY: Here is the next compound: CN(C)C(=O)Oc1cc(OC(=O)N(C)C)cc(C(O)CNC(C)(C)C)c1 (configuration not stated)
RESULT: 1.03

###

# assayProtocol: chemical genetic growth profiling, strain panel (AID 1159580)
# experimentalSetup: S. cerevisiae deletion strains, growth OD, locus YMR205C, strain PFK2, hits give low values
In all, about 5,500 compounds went through this assay and about 2,000 (36%) were called active. Not shown: some 18% with an inconclusive outcome. This is one part of the list.
property: normalized growth
Format: numeric value only, no unit, no commentary.

molecule	normalized growth
O=c1[nH]c2cc(Cl)c(Cl)cc2[nH]c1=O	0.974
CC[N+]1(C)CCCC(OC(=O)C(O)(c2ccccc2)c2ccccc2)C1 (stereo unspecified)	1.03
CC1=C2C(=CO[C@H](C)[C@H]2C)C(=O)C(C(=O)O)=C1O	0.937

QUERY: Would you mind telling me what normalized growth value was observed for O=C(O)c1nc2cc(Cl)c(Cl)cc2[nH]c1=O ?
RESULT: 1.04

QUERY: Here is the next molecule: COc1ccc(C(=O)/C=C/c2ccccc2)cc1
RESULT: 0.707

QUERY: Here is the next molecule: CN1CCN2c3ccccc3Cc3ccccc3C2C1 (stereo unspecified)
RESULT: 0.982

###

Reference list of normalized growth values.
# assayProtocol: chemical genetic growth profiling, strain panel (AID 1159580)
# experimentalSetup: S. cerevisiae deletion strains, growth OD, locus YFR019W, strain FAB1, hits give low values
In all, about 5,500 compounds went through this assay and about 2,000 (36%) were called active. About 18% were inconclusive and are not listed. Some of the results follow.
Format: numeric value only, no unit, no commentary.

For orientation, consider the following solved cases.
compound	normalized growth
Cc1csc2ncnc(N/N=C\c3ccccc3Cl)c12	0.979
N#Cc1c(Br)cnn1Cc1cc(C(F)(F)F)cc(C(F)(F)F)c1	0.936
CCC(C)Cn1c(Sc2ncc([N+](=O)[O-])s2)n[nH]c1=O (centres undefined)	0.838
COc1cc(NC(=S)Nc2ccccc2OC(F)(F)F)cc(C(F)(F)F)c1	0.983

QUERY: Would you mind telling me what normalized growth value was observed for CC(C)c1ccc(-c2cc(=O)c3ccccc3o2)cc1 ?
RESULT: 0.864

QUERY: Here is the next compound: Clc1ccc(-c2csc(Nc3ccccc3)n2)s1
RESULT: 0.593

QUERY: Here is the next compound: CCn1nc(C)cc1-c1nnc(Sc2ncc([N+](=O)[O-])s2)n1C
RESULT: 0.974

QUERY: Here is the next compound: C/C(=N/Nc1nc(C(C)(C)C)cs1)c1ccc(Cl)c(Cl)c1
RESULT: 0.91

QUERY: Here is the next compound: CC(C)(C)c1cc2nc(C(F)(F)F)cc(NNC(=O)c3ccc(Cl)cc3)n2n1
RESULT: 0.966

###

# assayProtocol: chemical genetic growth profiling, strain panel (AID 1159580)
# experimentalSetup: S. cerevisiae deletion strains, growth OD, strain wtn01, hits give low values
In all, about 5,500 compounds went through this assay and about 2,000 (36%) were called active. Roughly 18% stayed inconclusive and do not appear here. Some of the results follow.
Reference list of normalized growth values.
Format: numeric value only, no unit, no commentary.

molecule	recordedMeasurement
CNCCC=C1c2ccccc2CCc2ccccc21	1.05

QUERY: Would you mind telling me what normalized growth value was observed for CN(C)CCC=C1c2ccccc2CCc2ccccc21 ?
RESULT: 0.982

QUERY: Here is the next molecule: COc1ccc(C(=O)/C=C/c2ccccc2)cc1
RESULT: 0.811

###

# assayProtocol: chemical genetic growth profiling, strain panel (AID 1159580)
# experimentalSetup: S. cerevisiae deletion strains, growth OD, locus YDR334W, strain swr1
Among all 5,500 compounds or so, about 2,000 (36%) were called active. About 18% were inconclusive and are not listed. Rule as the data show it: active = normalized growth mostly below about 0.91 (no sharp cut-off); inconclusive = no clear call, values can overlap the other calls; inactive = mostly above about 0.92. This is one part of the list.
Parameter call: string, one of active, inactive

Reference entries begin here.
compound	classAssignment
CC(=O)Oc1ccc(-c2cc(=O)c3c(OC(C)=O)cc(OC(C)=O)cc3o2)cc1	inactive
C[C@@H]1CC[C@@]2(OC1)OC1C(O)C3C4CC[C@H]5C[C@H](O[C@@H]6O[C@H](CO)[C@H](O[C@@H]7O[C@H](CO)[C@@H](O)[C@H](O[C@@H]8OC[C@@H](O)[C@H](O)[C@H]8O)[C@H]7O[C@@H]7O[C@H](CO)[C@H](O)[C@H](O[C@@H]8O[C@H](CO)[C@@H](O)[C@H](O)[C@H]8O)[C@H]7O)[C@H](O)[C@H]6O)[C@H](O)C[C@]5(C)C4CC[C@]3(C)C1[C@@H]2C (some centres not stated)	inactive
C=CCc1ccccc1OCC(O)CNC(C)C (configuration not stated)	inactive
C=C1C2CC[C@@]3(C)[C@H](c4ccoc4)OC(=O)C[C@]13O[C@H]1CC(=O)C(C)(C)[C@H](C(O)C(=O)OC)[C@@]21C (some centres not stated)	inactive

QUERY: What is the recorded call for this compound in the test? Nc1nc(N)c2nc(-c3ccccc3)c(N)nc2n1
RESULT: inactive

QUERY: Here is the next compound: COc1cccc2c1cc([N+](=O)[O-])c1c(C(=O)O)cc3c(c12)OCO3
RESULT: inactive

QUERY: Here is the next compound: O=c1c2ccccc2[se]n1-c1ccccc1
RESULT: active

###

# assayProtocol: chemical genetic growth profiling, strain panel (AID 1159580)
# experimentalSetup: S. cerevisiae deletion strains, growth OD, locus YKR091W, strain srl3
Hit rate of the full screen: of about 5,500 compounds, about 2,000 (36%) were called active. Inconclusive results (about 18%) are left out. Cut-off read from the data, not from the text of the source: active = normalized growth mostly below about 0.91 (no sharp cut-off); inconclusive = no clear call, values can overlap the other calls; inactive = mostly above about 0.92. The other results are listed elsewhere or left out.
Parameter call: string, one of active, inactive

Reference entries begin here.
compound	classAssignment
O=c1oc2ccccc2c(O)c1Cc1c(O)c2ccccc2oc1=O	inactive
NCCc1ccc(O)c(O)c1	inactive
O=C1CN2Cc3c(ccc(Cl)c3Cl)N=C2N1	inactive
NCCc1ccc(O)cc1	inactive
CN1CCOC(c2ccccc2)c2ccccc2C1 (configuration not stated)	inactive
CCCCC1C(=O)N(c2ccccc2)N(c2ccccc2)C1=O	inactive

Next, consider the following compound.
QUERY: What is the recorded call for this compound in the test? CCCCCCCCCc1ccc(O)cc1
RESULT: active
